Value source: ChEMBL document CHEMBL3988442

- Species on record: Homo sapiens
- procedureSummary: To identify inhibition of the IFN signalling (Jak-Stat) pathway via expression of an eGFP reporter gene under the control of an IFN-stimulated response element (ISRE) containing MxA promoter.
- Type: functional
- Design: scale not given: direction of the effect not stated beside the values
- testContext: 30 µM
This section presents compounds with their documented Percent Effect values.
// return numeric value only (unit: %, not printed)

Please review the following examples before continuing.
[
  {
    "compound": "N#CC1(C(=O)N2CCN(Cc3cscn3)CC2)CCCC1",
    "valueType": "Percent Effect",
    "observedResult": 29.4
  },
  {
    "compound": "CS(=O)(=O)NCC1CCCN(C(=O)c2ccc(Cl)o2)C1 (stereo not drawn)",
    "valueType": "Percent Effect",
    "observedResult": -11.3
  },
  {
    "compound": "CN(C)c1cncc(C2CCN(C(=O)CO)CC2)n1",
    "valueType": "Percent Effect",
    "observedResult": 22
  }
]

What does the data say about its Percent Effect? Entry: Cc1cccc(NC2CCN(C(=O)Nc3cc(F)cc(F)c3)CC2)n1
27.7

What does the data say about its Percent Effect? Entry: CCOc1ncccc1CNC(=O)Nc1ccc(N(C)C)nc1
13.9

What does the data say about its Percent Effect? Entry: CCc1csc(C2CCCN(C(=O)C3=NN(CC)C(=O)CC3)C2)n1 (stereo not drawn)
11.1

What does the data say about its Percent Effect? Entry: Cc1cc(CN2CCCC2c2c(C)nn(C)c2Cl)no1 (stereo not drawn)
3.96

What does the data say about its Percent Effect? Entry: Cc1ccc2oc(C(=O)N3CCc4nnc(N(C)C)cc4C3)cc2n1
4.8
